Target: BCL2 G101V (Homo sapiens, UniProt P10415, G101V)
Assay: TR-FRET competitive binding assay, BCL2 G101V
Details: BCL2 G101V; Ki determined from IC50; read-out: TR_FRET EKI_Bcl2 G101V
Procedure: The relative binding potency of each compound was determined in a competitive binding assay using time resolved-fluorescence resonance energy transfer (TR-FRET). […] The degree of binding or corresponding compound inhibition can be quantified by the TR-FRET signal between the terbium donor and fluorescein acceptor. […] TR-FRET measurements were performed on a Biotek Synergy Neo plate reader. […] The TR-FRET signal was calculated as the emission-ratio at 520 nm over 495 nm. […]
Reported pKi by item:
pKi field: float, defined as -log10 of concentration (mol/L).

Guide cases for pKi, answers given:
// map "Cc1cc(OCCN2CCOCC2)c(F)cc1CC(=O)N1CCc2cc(-c3cc(C(=O)N(c4ccc(O)cc4)c4cc(C#N)n(C)c4C)c(C)n3C)c(C(=O)N3Cc4ccccc4C[C@H]3CN3CCCCC3)cc2C1" to recorded pKi (system: BCL2 G101V (Homo sapiens, UniProt P10415, G101V)) 8.80

And the next one, "Cc1c(N(C(=O)c2cc(-c3cc4c(cc3C(=O)N3Cc5ccccc5C[C@H]3CN3CC[C@H](C)C3)CN(C(=O)Cc3ccc(OCCN5CCOCC5)cc3F)CC4)n(C)c2C)c2ccc(O)cc2)cc(C#N)n1C" ? 9.52

And the next one, "Cc1c(N(C(=O)c2cc(-c3cc4c(cc3C(=O)N3Cc5ccccc5C[C@H]3CN3CCC[C@@H](C)C3)CN(C(=O)Cc3ccc(OCCN5CCOCC5)cc3F)CC4)n(C)c2C)c2ccc(O)cc2)cc(C#N)n1C" ? 9.15

And the next one, "Cc1ncc(N(C(=O)c2cc(-c3cc4c(cc3C(=O)N3Cc5ccccc5C[C@H]3CN3CCCCC3)CN(C(=O)Cc3ccc(OCCN5CCOCC5)cc3F)CC4)n(C)c2C)c2ccc(O)cc2)cc1C#N" ? 9.30

Further cases:
// map "Cc1c(N(C(=O)c2cc(-c3cc4c(cc3C(=O)N3Cc5ccccc5C[C@H]3C)CN(C(=O)Cc3ccc(OCCNCCF)cc3)CC4)n(C)c2C)c2ccc(O)cc2)cc(C#N)n1C" to recorded pKi (system: BCL2 G101V (Homo sapiens, UniProt P10415, G101V)) 9.89

---

Entries below carry reported Ki on BCLXL WT (Homo sapiens (Human), UniProt Q07817).
Sequence (Q07817 other isoform, or with tags, fused parts or gaps): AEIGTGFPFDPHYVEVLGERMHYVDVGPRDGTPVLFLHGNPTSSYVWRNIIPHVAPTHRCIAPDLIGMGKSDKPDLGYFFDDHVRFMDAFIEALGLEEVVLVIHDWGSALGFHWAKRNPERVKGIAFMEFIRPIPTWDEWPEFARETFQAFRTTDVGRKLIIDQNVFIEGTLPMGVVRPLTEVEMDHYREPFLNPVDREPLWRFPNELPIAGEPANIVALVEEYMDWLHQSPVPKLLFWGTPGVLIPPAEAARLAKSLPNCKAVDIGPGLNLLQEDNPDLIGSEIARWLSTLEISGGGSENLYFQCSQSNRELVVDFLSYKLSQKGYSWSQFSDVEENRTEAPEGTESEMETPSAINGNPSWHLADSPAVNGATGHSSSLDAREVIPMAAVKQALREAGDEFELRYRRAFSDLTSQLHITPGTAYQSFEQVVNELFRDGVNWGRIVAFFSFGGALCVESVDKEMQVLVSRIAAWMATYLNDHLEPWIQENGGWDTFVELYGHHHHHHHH
Give the value, in units of nM, as a plain number.

Guide cases for Ki, answers given:
Find the recorded Ki belonging to "Cc1c(N(C(=O)c2cc(-c3cc4c(cc3C(=O)N3Cc5ccccc5C[C@H]3CN3CCCCC3)CN(C(=O)Cc3ccc(OCCN5C[C@@H](C)O[C@@H](C)C5)cc3)CC4)n(C)c2C)c2ccc(O)cc2)cc(C#N)n1C" and report it. 4.7

And the next one, "Cc1c(C(=O)N(c2ccccc2)c2cnn(C)c2)cc(-c2cc3c(cc2C(=O)N2Cc4ccccc4C[C@H]2C)CN(C(=O)Cc2ccc(OCCN(C)C)cc2F)CC3)n1C" ? 4.3

And the next one, "Cc1c(N(C(=O)c2cc(-c3cc4c(cc3C(=O)N3Cc5ccccc5C[C@H]3CN(C(C)C)C(C)C)CN(C(=O)Cc3ccc(OCCN5CCOCC5)cc3F)CC4)n(C)c2C)c2ccc(O)cc2)cc(C#N)n1C" ? 3.9

Further cases:
Find the recorded Ki belonging to "Cc1c(N(C(=O)c2cc(-c3cc4c(cc3C(=O)N3Cc5ccccc5C[C@H]3CN3CCCCC3)CN(C(=O)Cc3ccc(OCCN5CCC(F)(F)C5)cc3)CC4)n(C)c2C)c2ccc(O)cc2)cc(C#N)n1C" and report it. 6.3

And the next one, "Cc1cc(OCCN2CCOCC2)ccc1CC(=O)N1CCc2cc(-c3cc(C(=O)N(c4ccc(O)cc4)c4cc(C#N)n(C)c4C)c(C)n3C)c(C(=O)N3Cc4ccccc4C[C@H]3CN3CCCCC3)cc2C1" ? 3.6

And the next one, "Cc1c(N(C(=O)c2cc(-c3cc4c(cc3C(=O)N3Cc5ccccc5C[C@H]3CN(C)C(C)C)CN(C(=O)Cc3ccc(OCCN(C)C5CC5)cc3)CC4)n(C)c2C)c2ccc(O)cc2)cc(C#N)n1C" ? 2.2

And the next one, "Cc1c(C(=O)N(c2ccccc2)c2cnn(C(F)F)c2)cc(-c2cc3c(cc2C(=O)N2Cc4ccccc4C[C@H]2C)CN(C(=O)Cc2ccc(OCCC4CCN(C)CC4)cc2)CC3)n1C" ? 2.8

And the next one, "Cc1c(C(=O)N(c2ccc(O)cc2)c2cc(C#N)n(C(F)F)c2C)cc(-c2cc3c(cc2C(=O)N2Cc4ccccc4C[C@H]2CN2CCCCC2)CN(C(=O)Cc2ccc(OCCN4C[C@@H](C)O[C@@H](C)C4)cc2)CC3)n1C" ? 14.4

And the next one, "Cc1c(C(=O)N(c2ccccc2)c2cnn(C)c2)cc(-c2cc3c(cc2C(=O)N2Cc4ccccc4C[C@H]2C)CN(C(=O)Cc2ccc(OCCC4CCN(C)CC4)cc2)CC3)n1C" ? 1.7

And the next one, "Cc1c(N(C(=O)c2cc(-c3cc4c(cc3C(=O)N3Cc5ccccc5C[C@H]3CN3CCCC[C@H]3C)CN(C(=O)Cc3ccc(OCCN5CCOCC5)cc3F)CC4)n(C)c2C)c2ccc(O)cc2)cc(C#N)n1C" ? 2.6
